Provenance of the data: PubChem BioAssay (NCI)

system: T-47D breast; test: NCI-60 one-dose screen, 48 h; conditions: 10 µM unless noted
The panel holds about 83,000 compounds, 20% with a hit somewhere; the sample as a whole holds those more often. The source made the active and inactive calls. The calls were made as follows: active = growth percent below 10; inactive = the rest.
Output constraint: value belongs to t for active, f for inactive

{"columns": ["INPUT SMILES", "LABEL CLASS"],
 "data": [
  ["Cc1sc2nc(NCCc3c[nH]c4ccc(Cl)cc34)[nH]c(=O)c2c1C", "f"],
  ["O=C(Nc1ccccc1O)c1ccc(CNC(=O)c2sccc2Nc2ccnc(C(F)(F)F)c2)cc1", "f"],
  ["Cc1ccc2c(c1)=C/C(=C\\c1cc(-c3ccccc3)oc1O)C(=O)N=2", "f"]
]}

Record lookup: outcome of this test for "CCOC(=O)c1cc(C(=O)c2cc(OC)c(OC)c(OC)c2)n2ncccc12" ?
f

Next: "C1CN(SSN2CCOCC2)CCO1"
t

Here is the next compound: "CC(C)(C)CC(C)(C)NC(=O)Nc1ncccc1OCc1ccccc1"
f

Field entry: "C=CCN=c1sc2c(n1NC(=O)c1cc3ccc1CCc1ccc(cc1)CC3)C(=O)c1ccccc1C2=O"
t

Similarly, "C=C1C(=O)O[C@H]2[C@H]1CC/C(COC(=O)c1cc3ccccc3s1)=C\CC[C@@]1(C)O[C@@H]21" ?
t

One more compound: "Cn1ccnc1C(=O)/C=C/c1ccc(C(=O)Nc2ccc(Cl)cc2)cc1"
t

Can you check "COc1ccc2c(c1)c(-c1nc(-c3c[nH]c4ccncc34)cs1)cn2C" next?
t

###

I'd appreciate it if you could supply growth values for the items below.
Tested on: HT29 colon
Test: NCI-60 one-dose screen, 48 h (100 = growth as untreated, 0 = no growth, -100 = all killed)
Settings: 10 µM unless noted
Description: Growth inhibition of the HT29 human tumor cell line is measured as a screen for anti-cancer activity. Cells are grown in 96 well plates and exposed to the test compound for 48 hours. Compounds are tested at a single concentration, which is 10^-5 M for most compounds. The reported endpoint is percent growth (GI% or GIPRCNT), where numbers from 0 - 100% represent growth inhibition, and numbers from -100% - 0 represent cell death. For example, a value of 40 represents 60% growth inhibition. […]
Compounds without any hit were thinned out: in the full panel of roughly 83,000, 20% have a hit. Activity calls are given as the source filed them. Rule for the calls: active = growth percent below 10; inactive = the rest.

Here are 4 compounds together with their reported answers.
{"columns": ["COMPOUND", "growth"],
 "data": [
  ["O=C(NCCNc1nccc(Nc2ccc(S(=O)(=O)Nc3ccccn3)cc2)n1)c1cccc([N+](=O)[O-])c1", "90.6% (inactive)"],
  ["CS(=O)(=O)Nc1cc(-c2ccc3ncnc(Nc4ccc5c(cnn5Cc5cccc(F)c5)c4)c3c2)cnc1Cl", "5.83% (active)"],
  ["CNC(=O)c1[nH]cc(-c2ccc(OC)cc2)c1-c1cc(OC)c2c(c1OC)OCO2", "108% (inactive)"],
  ["COc1ccc(-c2ccc(-c3ccc(C(=N)N)cc3)s2)cc1Cl", "0.572% (active)"]
]}

Give measured growth for every item shown.
1. CCO/C=N/C1=C(C#N)C(c2ccc(Cl)cc2)c2sc3c(F)cccc3c2O1 (centres undefined)
2. N#Cc1ccc(O)c(C2=NCC(c3ccccc3)O2)c1 (centres undefined)
3. c1ccc(Cn2cc3c(c2)-c2oncc2CC3)cc1

89.5% (inactive)
46.2% (inactive)
7.96% (active)

Required: growth, one value per compound below.
1. COc1ccc(/C=C(\C#N)n2nnc3cc(F)c(F)cc32)cc1
2. CC1=C2[C@@H](CC1)[C@]1(C)O[C@@](C(C)C)(C[C@H]1OC(=O)[C@H](C)O)[C@H]2OC(=O)/C=C/c1ccccc1

["6.99% (active)", "82.8% (inactive)"]

Provide growth for all items below, preserving their order.
1. COc1ccc(CNc2c3ccccc3nc3ccccc23)cc1
2. O=C(Cn1cc(CSc2nc3ccccc3o2)nn1)Nc1ccc(F)cc1F

19.3% (inactive)
128% (inactive)

Please give growth, item by item, for the list that follows.
1. OCCn1cc(-c2nc(-c3c[nH]c4ncccc34)cs2)c2ccccc21
2. O=C1C(Cl)=C(NCCCCCCNC2=C(Cl)C(=O)c3ccccc3C2=O)C(=O)c2ccccc21
3. O=C(CSc1nc2ccc([N+](=O)[O-])cc2[nH]1)Nc1ccc([N+](=O)[O-])cc1
4. CN(C)CCNC(=O)c1cc2c3cc(Cl)ccc3[nH]c2c2ncccc12

95% (inactive)
98.7% (inactive)
13.1% (inactive)
0.808% (active)

For every record below, what is its growth?
1. CCN1C(=S)N(c2ccccc2)C2C1NN=c1s/c(=C3\C(=O)N(C(C)C)c4ccccc43)c(=O)n12 (centres undefined)
2. CS(=O)(=O)c1ccc(-c2cnn3ccc(-c4cccc(S(=O)(=O)C5CC5)c4)nc23)cc1
3. [O-]/[N+](=C\c1ccc(-n2cc(Cc3ccccc3Cc3cn(-c4ccc(/C=[N+](/[O-])c5ccccc5)cc4)nn3)nn2)cc1)c1ccccc1
4. Oc1c(I)cc(I)cc1CNCc1ccccn1

1: 69.6% (inactive); 2: 34% (inactive); 3: 101% (inactive); 4: 36.6% (inactive)

Fill in growth for each of the 8 compounds listed.
1. CCCCCC(/C=N\NC(=S)N/N=C/C(=C/c1ccccc1)CCCCC)=C\c1ccccc1
2. Cc1sc2nc(NCCc3c[nH]c4ccc(Cl)cc34)[nH]c(=O)c2c1C
3. NS(=O)(=O)c1ccc(N=Nc2c(O)n(Cc3ccccc3)c3ccc(Cl)cc23)cc1
4. O=C1/C(=C/c2cn(-c3ccccc3)nc2-c2ccccc2)SC(=S)N1C1CCCCC1
5. N=C(N)c1ccc(-c2ccc(-c3ccccc3)o2)cc1
6. CCn1c(SCC(=O)N/N=C(\C)c2ccc(Cl)cc2)nc2c1c(=O)n(C)c(=O)n2C
7. CCOC(=O)c1cc(C)n(-c2ccc(C(=O)O)cc2)c1C
8. Cn1cc(-c2ccc3nc(-c4ccc(CC(=O)ONc5cc(C(C)(C)C)on5)cc4)cnc3c2)cn1

105% (inactive)
19.6% (inactive)
94.6% (inactive)
111% (inactive)
-76.5% (active)
103% (inactive)
37.8% (inactive)
39.6% (inactive)

Please supply growth for each of the following items, keeping them in order.
1. CCOC(=O)C#Cc1c(C(=O)OCC)nnn1Cc1ccc([N+](=O)[O-])cc1
2. O=C(Nc1nc2cc(C(=O)N3CCN(C(c4ccccc4)c4ccccc4)CC3)ccc2o1)c1ccc(NC2CCCCC2)c([N+](=O)[O-])c1
3. CC1=C([Se]CC(OC(=O)CC[Se]c2ccccc2)C(=O)NC(C)(C)C)C(=O)c2ccccc2C1=O (centres undefined)
4. NC(N)=NCCCCCNc1noc(Cc2c[nH]c3cc(Br)ccc23)n1
5. Cc1cc(S(=O)(=O)/N=C(\N)n2nc(C)c(C)c2C)c(SCc2ccccc2)cc1Cl
6. CC(=O)/C(=C\c1c(-c2ccccc2)[nH]c2ccccc12)S(C)(=O)=O

7.68% (active)
62.2% (inactive)
5.28% (active)
73.7% (inactive)
63.7% (inactive)
4.54% (active)

// for each compound in input: emit growth
1. Cn1cc(-c2csc(-c3c[nH]c4ccc(Br)cc34)n2)c2ccnc(Cl)c21
2. Cn1ccc(=O)c(C(=O)Nc2nsc3ccc([N+](=O)[O-])cc23)c1
3. CC(=O)Oc1ccc(C)cc1C
4. Cc1ccc(C)n1-c1ccccc1-n1c(C)ccc1C
5. Cc1ccccc1/C=C/C(=O)c1cccc(OCCCOc2cccc(C(=O)/C=C/c3ccccc3C)c2)c1
6. O=C(Nc1cccc(Cl)c1)Nc1cccc(Cn2c(=O)[nH]c3ccc(Oc4ncccn4)cc3c2=O)c1

["20.8% (inactive)", "68.2% (inactive)", "105% (inactive)", "103% (inactive)", "79.6% [3 µM] (inactive)", "38.8% (inactive)"]
